B1: TPR 5TU (parent)
chain: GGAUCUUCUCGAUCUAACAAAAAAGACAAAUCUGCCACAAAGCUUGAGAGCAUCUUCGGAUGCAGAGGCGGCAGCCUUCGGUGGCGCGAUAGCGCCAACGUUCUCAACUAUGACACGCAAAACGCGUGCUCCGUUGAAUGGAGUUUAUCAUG

# Variants of: B1
# experimental protocol: polymerase ribozyme fitness, log enrichment relative to wild type (log ratio); higher = more active; in vitro selection for triplet polymerase activity
This sample holds only a part of the variants without activity.
The variants listed here are annotated with their polymerase ribozyme fitness (log ratio).
observed property: polymerase ribozyme fitness (log ratio)

G58A C87A
≤ -4.2
U56A U78A A121C
≤ -4.2
U31C A52C U56A U82C A107U
≤ -4.2
U6C U53A G59A G83A U90G C118U C131U A137G A138C
≤ -4.2
C51A C95U A119G
-1.34
C72U U104G A106G U144A
-4.01
C10G C14U C36A C79U G92U
≤ -4.2
G50A C54G U77G A97U A120G
≤ -4.2
C85U A150U G152A
-0.481
A60C G71C C93G G140A U151C
≤ -4.2
U53A G128C A137C U148G C149G
≤ -4.2
G34U C99G A106U U127A C132U U139C
≤ -4.2
A20G A40C A49C G50A G65C G68A C87U G124U
≤ -4.2
G25C A26U A30U A39U U56G U77A A138U
≤ -4.2
G42A G50A A66U G88A C96G U139C
≤ -4.2
A47C U55A C57A G84U C96U C99U G136A G143C
≤ -4.2
A17G A37U C87U C99A C123U
-3.98
C36A C51U G68A C85G A97U
≤ -4.2
A39C C87U
-2.12
G46U C99U
-1.06
G25C C69G C96A C99U C118A
≤ -4.2
A19U G42C G86U A110G C116A G117U
≤ -4.2
U109A G124A G140C
≤ -4.2
U33G G80C C85G
≤ -4.2
C35A A60C U102G
≤ -4.2
A23U A60G G81A G83U
≤ -4.2
G42C U53A C99U
≤ -4.2
C38U C105U C118G U139G
-1.24
C57A A73U G84A U135A
-2.22
G46C C54A U61A C63U G70A G84A C93U G100A C116G
≤ -4.2
C5A C27A C87A U109A G126A
≤ -4.2
C79U G140U
-3.68
C8G U13A U33G G71A G74A C87G C96A C105A
≤ -4.2
G83U C114G A115U A119U
≤ -4.2
G65A C96U G112C A115G U144A
≤ -4.2
A41C C96A U146A
-0.97
G65C G81U G94C C105G A115G C129U A138C
≤ -4.2
A26U G92A
-3.86
U7A U61A G62A G71C C103G
≤ -4.2
A37G G67A C79G
≤ -4.2
A17U U33A U45A C57G G70C C87A A98U
≤ -4.2
A29U G48A U61G G84U C85A C105U G126U
≤ -4.2
A26U A89C C95U U104A A107G
≤ -4.2
A12C U33A G42U A60G C93G
≤ -4.2
U53A C99U
-2.58
U82A C95G C118U G126C
-2.5
U53A C93G A98G
≤ -4.2
C57U A60C G86A C105G
≤ -4.2
A19G U31G U44A G80A C123G G141C
≤ -4.2
A22U C57G C93G U151G
≤ -4.2
A73G U77G C103G G136U
≤ -4.2
G58C A73G C85G
-2.21
C14A A20U A60G A66U C93G
≤ -4.2
U53A G59C A60G G84A
-1.76
A12C C87A U130C
≤ -4.2
A17C C85U
0.349
A12G C27U G46U C57A C85G A122C
-3.63
U4C C96A
-0.253
A24U G42A G88A G92A A115C
≤ -4.2
A12G U13C C38U G58A A73U
-1.35
A23U A119G A120U G152A
≤ -4.2
C36A C96A
≤ -4.2
A22C A121U
-0.324
C51G U55G C108A A119U G124A G141A U146A
≤ -4.2
C18U A19U A24G G74U C79U
≤ -4.2
A47G C87A U90G A98G C99A G117C C149A
≤ -4.2
A19C C36U G70A G80U C105U G152U
-3.99
G59A A106G U134A
-2.03
C125A U148A
-3.93
A40U G92A A119C A120C U148G
≤ -4.2
U13G C76A
-2.11
A21G G70A
-3.35
U4A A121G A137C C149U
-4.16
A20G G59C G94C
-0.672
C85A U130A
-2.45
U55A C72A U139C
≤ -4.2
G68A G94C
-4.03
C14G A24C A49G G92C
≤ -4.2
